# Tested on: OVCAR-4 ovarian
# EXPERIMENT NOTES: NCI tumour cell line growth inhibition, 48 h; in the data active = GI50 below about 0.43 µM; inactive = the rest
Outcome codes: 1 (yes) (active), 0 (no) (inactive)

compound=NC(=O)c1sc(-n2cnc3cc(C(F)(F)F)ccc32)cc1OCc1ccccc1Br assigned_label="0 (no)"
compound=O=Cc1ccc(-c2ccc(-c3nc4ccccc4s3)cc2)s1 assigned_label="0 (no)"
compound=O=[N+]([O-])c1cc([N+](=O)[O-])c(Cl)cc1Cl assigned_label="0 (no)"
compound="NC(CSSCC(N)C(=O)O)C(=O)O (configuration not stated)" assigned_label="0 (no)"
compound=COC(=O)[C@H](Cc1cn(C)cn1)NC(=O)[C@H](C)NC(=O)Nc1cc(C(F)(F)F)cc(C(F)(F)F)c1 assigned_label="0 (no)"
compound=CC(=O)/C=C/c1ccc(OCc2ccc(Cl)cc2)cc1 assigned_label="0 (no)"
compound=CCSC[C@@H]1C[C@](O)(c2ccc(F)cc2)[C@@H](c2ccc(F)cc2)O1 assigned_label="0 (no)"
compound=COc1ccc(C(=O)c2sc3nc(-c4cccs4)ccc3c2N)cc1OC assigned_label="0 (no)"
compound="CC1SC2(CCCCC2)N(NC(=O)c2[nH]c3ccc(Br)cc3c2-c2ccccc2)C1=O (configuration not stated)" assigned_label="0 (no)"
compound=Cc1[nH]c2cc(F)ccc2c1-c1nc2c3cccnc3c3ncccc3c2[nH]1 assigned_label="1 (yes)"
compound="CC1(C)Cc2c(Br)c(Br)c(Br)c(OCC(O)CN3CCN(c4ccccn4)CC3)c2O1 (configuration not stated)" assigned_label="0 (no)"
compound=O=C1c2cccnc2C(=O)c2c1c(C(=O)OCCCN1CCCCC1)c1ccccn21 assigned_label="1 (yes)"

###

# Tested on: IGROV1 ovarian
# EXPERIMENT NOTES: NCI tumour cell line growth inhibition, 48 h
Listing of entries alongside the reported TGI.
QUANTITY KIND: TGI

compound="CCCCOC(=O)C1CC[C@H]2[C@@H]3CCc4cc(OC(=O)c5cccc6c(=O)c7ccccc7[nH]c56)ccc4[C@H]3CC[C@]12C (stereo not given in full)" quantity_kind=TGI meas_value="14.9 µM"
compound=CCOC(=O)/C=C(\C(=O)OCC)n1cc(C)c(=O)n(Cc2cnnn2COCCOC(C)=O)c1=O quantity_kind=TGI meas_value="21.8 µM"
compound=CC(=O)NC1=NC(=O)/C(=C/c2ccc(/C=C3/C(=O)N=C(NC(C)=O)N3C)cc2)N1C quantity_kind=TGI meas_value="> 100 µM"
compound=Cc1c2c(c(C)c3c1[nH]c1ccccc13)CN(C)CC2 quantity_kind=TGI meas_value="> 100 µM"
compound=COc1cccc(SSc2cccc(OC)c2C(=O)O)c1C(=O)O quantity_kind=TGI meas_value="> 100 µM"
compound="COC1CC(N)C(O)C(C)O1 (stereo not given)" quantity_kind=TGI meas_value="> 100 µM"
compound="COc1ccc(C2C(=O)c3c(OC)cc(OC)cc3OC2c2cccnc2)cc1 (stereo not given)" quantity_kind=TGI meas_value="> 100 µM"
compound=Nc1nc(N)c2nc3c(nc2n1)CCCCCCCCCC3 quantity_kind=TGI meas_value="> 100 µM"
compound=N/C1=C/C(=O)NC(=O)c2c(c3ccccc3oc2=O)C1 quantity_kind=TGI meas_value="> 100 µM"
compound=C/C(=N\NC(=S)N1CCCCCC1)c1cccc2cccnc12 quantity_kind=TGI meas_value="> 94.1 µM"

###

# Tested on: KM12 colon
# EXPERIMENT NOTES: NCI tumour cell line growth inhibition, 48 h
QUANTITY KIND: TGI (µM)

compound=O=c1cccc(-c2cccc(=O)[nH]2)[nH]1 unit_descriptor=µM censor_symbol=> meas_value=100
compound=N#CC1=C(O)NC(O)=C(C#N)C1c1ccc(C2C(C#N)=C(O)NC(O)=C2C#N)cc1 unit_descriptor=µM censor_symbol=> meas_value=100
compound=Cc1nc2sc(C(=O)c3ccc(Cl)cc3)c(N)c2c(-c2ccccc2Cl)c1C(=O)Nc1ccccc1 unit_descriptor=µM censor_symbol== meas_value=50
compound="CC1=Nc2c([nH]c(=S)[nH]c2=O)NC(c2c(Cl)cccc2Cl)C1 (stereo not given)" unit_descriptor=µM censor_symbol== meas_value=4.51
compound="CN(CCCCCl)P(=O)(OCc1ccc([N+](=O)[O-])o1)OCC1OC(n2cnc([N+](=O)[O-])c2N)C(O)C1O (stereo not given)" unit_descriptor=µM censor_symbol=> meas_value=100
compound=CC(=O)O[C@H]1CC[C@@]2(C)C(=C/C(=N/OCCN3CCCC3)[C@H]3[C@@H]4CC[C@H](OC(C)=O)[C@@]4(C)CC[C@@H]32)C1 unit_descriptor=µM censor_symbol=> meas_value=100
compound=O=C1CC/C(=C/COc2cc(=O)oc3ccccc23)O1 unit_descriptor=µM censor_symbol== meas_value=25.1
compound=CCCCNc1ccc(Nc2ccccc2)cc1 unit_descriptor=µM censor_symbol== meas_value=32.6
compound="CC(C)C1=CC(=O)[C@@](C)(C2[C@H](O)C[C@@]3(C)[C@@H]4CC=C5[C@@H](CC[C@@H](OC6OCC(O)C(O)C6OC6OC(C)C(O)C(O)C6O)C5(C)C)[C@]4(C)C(=O)C[C@]23C)O1 (stereo not given in full)" unit_descriptor=µM censor_symbol=> meas_value=100
compound="C=C(Cl)C(Cl)(CCl)CCC(Br)C(C)(C)Br (stereo not given)" unit_descriptor=µM censor_symbol=> meas_value=10
compound="Cc1cc(O)c(C2=NN(c3ccc(S(N)(=O)=O)cc3)C(/C=C/c3ccccc3)C2)cc1Cl (stereo not given)" unit_descriptor=µM censor_symbol== meas_value=34.8
compound=O=C(NO)NCCCl unit_descriptor=µM censor_symbol=> meas_value=100
compound=O=C1C(c2c(O)[nH]c3ccc(Br)cc23)=Nc2ccc(Br)cc21 unit_descriptor=µM censor_symbol=> meas_value=100
compound="CC(=O)OC1=CC2(OC(C)=O)CC(C)(C)C1C1C(=O)C=CC(=O)C12 (stereo not given)" unit_descriptor=µM censor_symbol=> meas_value=100
compound=CN(CCC(=O)/C(=C\c1ccccc1)c1ccc(Cl)cc1)Cc1ccccc1 unit_descriptor=µM censor_symbol== meas_value=11
compound="COc1c(N2CCN(CN3C(=O)C(=O)c4cc(Cl)ccc43)C(C)C2)c(F)cc2c(=O)c(C(=O)O)cn(C3CC3)c12 (stereo not given)" unit_descriptor=µM censor_symbol=> meas_value=100
compound="NC(Cc1ccc2nc3c4ccccc4c(=O)cc-3oc2c1)C(=O)O (stereo not given)" unit_descriptor=µM censor_symbol=> meas_value=100
compound="C#CC(O)/C=C/CCCCCCC#CC/C=C\\CC#CCCCCCCCCC(O)C#C (stereo not given)" unit_descriptor=µM censor_symbol== meas_value=11.5
compound="COc1ccc(C2C(=O)c3c(OC)cc(OC)cc3OC2c2cccnc2)cc1 (stereo not given)" unit_descriptor=µM censor_symbol=> meas_value=100
compound=CC(C)(C)OC(=O)NCc1cccc(N=C=S)c1 unit_descriptor=µM censor_symbol== meas_value=32.8

###

# Test system: OVCAR-3 ovarian
# EXPERIMENT NOTES: NCI tumour cell line growth inhibition, 48 h
QUANTITY KIND: TGI

compound=COc1cc2c(cc1OC)C(=O)/C(=C/c1cc(C)cc(C)c1)C2 quantity_kind=TGI meas_value="1.04 µM"
compound="CC(=O)OCC1OC(n2c(Br)nc3c2c(=O)n(C)c(=O)n3C)C(OC(C)=O)C1OC(C)=O (stereo not given)" quantity_kind=TGI meas_value="> 100 µM"
compound=COC(=O)c1cc(OC)c(OC)c(OC)c1-c1cc2c(cc1C=O)OCO2 quantity_kind=TGI meas_value="> 10 µM"
compound="COc1cc(OC)c2c(c1)OC(c1cccnc1)C(c1ccccc1)C2=O (stereo not given)" quantity_kind=TGI meas_value="> 100 µM"
compound=COc1ccc(NCC(=O)Nn2c(-c3ccccc3)nc3ccccc3c2=O)cc1 quantity_kind=TGI meas_value="> 100 µM"
compound="CNc1ncnc2c1nc(NC1CCCC1)n2C1OC(CO)C(O)C1O (stereo not given)" quantity_kind=TGI meas_value="> 100 µM"
compound=CCCCNc1ccc(Nc2ccccc2)cc1 quantity_kind=TGI meas_value="> 100 µM"
compound="O=C1CSC(c2ccc(Cl)cc2Cl)N1c1ccc(Oc2ccc(Cl)cc2)c(Cl)c1 (stereo not given)" quantity_kind=TGI meas_value="65.9 µM"
compound="C[C@]12CC(c3ccccc3O1)C(C(=O)Nc1nc(C34CC5CC(CC(C5)C3)C4)cs1)C(=O)N2 (stereo not given in full)" quantity_kind=TGI meas_value="> 100 µM"
compound=COc1cccc(SSc2cccc(OC)c2C(=O)O)c1C(=O)O quantity_kind=TGI meas_value="> 100 µM"

###

# System: CCRF-CEM leukemia
# EXPERIMENT NOTES: NCI tumour cell line growth inhibition, 48 h
QUANTITY KIND: TGI (µM)

compound=CC1(C)COC2=C(C1)C(=O)c1ccccc1C2=O unit_descriptor=µM censor_symbol== meas_value=5.77
compound=Cc1nc2cc(Nc3ccccc3C(=O)O)ccc2s1 unit_descriptor=µM censor_symbol=> meas_value=100
compound=O=C1CN(c2cccc(Cl)c2)C(=O)CN1NCNN1CC(=O)N(c2cccc(Cl)c2)CC1=O unit_descriptor=µM censor_symbol=> meas_value=100
compound=CC(C)(C)OC(=O)NCc1cccc(N=C=S)c1 unit_descriptor=µM censor_symbol== meas_value=55.9
compound=O=C(Nc1ccc(S(=O)(=O)/N=c2\ncccn2C(=O)C(C(F)(F)F)C(F)(F)F)cc1)C(C(F)(F)F)C(F)(F)F unit_descriptor=µM censor_symbol=> meas_value=100
compound=CCOC(=O)Nc1cc2ccccc2c(N=Nc2ccccc2)c1O unit_descriptor=µM censor_symbol=> meas_value=100
compound=CC(=O)Nc1n[n+]([O-])c2cc(C)ccc2[n+]1[O-] unit_descriptor=µM censor_symbol=> meas_value=47.4
compound="NCCN1C(=O)c2ccccc2C1c1ccc(Cl)cc1 (stereo unspecified)" unit_descriptor=µM censor_symbol=> meas_value=100
compound=O=Cc1ccc(-c2ccc(-c3nc4ccccc4s3)cc2)s1 unit_descriptor=µM censor_symbol== meas_value=90.7
compound=COc1ccc(C(=O)C#Cc2c[nH]c(=O)[nH]c2=O)cc1 unit_descriptor=µM censor_symbol== meas_value=10.8
compound=Clc1ccc(C[P+](c2ccccc2)(c2ccccc2)c2ccccc2)cc1Cl unit_descriptor=µM censor_symbol== meas_value=28.3
compound="Cc1cc(O)c(C2=NN(c3ccc(S(N)(=O)=O)cc3)C(/C=C/c3ccccc3)C2)cc1Cl (stereo unspecified)" unit_descriptor=µM censor_symbol== meas_value=50
compound=O=C1C(c2c(O)[nH]c3ccc(Br)cc23)=Nc2ccc(Br)cc21 unit_descriptor=µM censor_symbol=> meas_value=100
compound=O=C(/C=C(\C(=O)c1cccs1)c1cccs1)c1ccc(C(=O)/C=C(\C(=O)c2cccs2)c2cccs2)cc1 unit_descriptor=µM censor_symbol=> meas_value=100
compound=OCCN(CCO)c1cccc(N(CCO)CCO)n1 unit_descriptor=µM censor_symbol=> meas_value=100
compound=Cn1cc(C(=O)c2ccccc2)cc(C(=O)c2ccccc2)c1=O unit_descriptor=µM censor_symbol=> meas_value=100
compound=Cc1nc2cc(Nc3nc(Nc4ccc(F)cc4)nc(N4CCOCC4)n3)ccc2n1Cc1ccccc1 unit_descriptor=µM censor_symbol== meas_value=8.2
compound="CC1=CP(=O)(c2c(C(C)C)cc(C(C)C)cc2C(C)C)CCC1Cl (stereo unspecified)" unit_descriptor=µM censor_symbol== meas_value=65.4
compound=CC(C)=CC(=O)c1[nH]c2ccccc2c1CC(=O)NCCc1cncn1C unit_descriptor=µM censor_symbol=> meas_value=100
compound=COC(=O)Nc1nc2ccc(S(=O)(=O)N3CCOCC3)cc2[nH]1 unit_descriptor=µM censor_symbol=> meas_value=100
compound=CSc1nc(N)c2c(-c3ccccc3)c3c(nc2n1)CCCC3 unit_descriptor=µM censor_symbol=> meas_value=100
compound=O=C1/C(=C/c2ccc(O)cc2)COc2ccc(O)c(O)c21 unit_descriptor=µM censor_symbol== meas_value=8.53
compound=CCSC[C@@H]1C[C@](O)(c2ccc(F)cc2)[C@@H](c2ccc(F)cc2)O1 unit_descriptor=µM censor_symbol== meas_value=30.2
compound="CC1OC2OC3C(OCC(O)C3O)OC(=O)[C@]34CCC(C)(C)CC3C3=CCC5[C@@]6(C)C[C@H](O)[C@H](OC7OC(CO)C(O)C(O)C7OC7OCC(OC(=O)CC(C)(O)CC(=O)OC1C(O)C2O)C(O)C7O)[C@@](C)(CO)C6CC[C@@]5(C)[C@]3(C)CC4 (stereo partly specified)" unit_descriptor=µM censor_symbol== meas_value=24
compound=CC(C)(NC(=O)OCc1ccccc1)C(=O)OC(=O)C(C)(C)NC(=O)OCc1ccccc1 unit_descriptor=µM censor_symbol=> meas_value=100
compound=CN(CCc1ccccn1)C(=S)N/N=C(\c1ccccc1)c1ccccn1 unit_descriptor=µM censor_symbol=> meas_value=100
compound=C#CCN(Cc1ccc2nc(-c3ccccc3)c(N)nc2c1)c1cc(OC)c(OC)c(OC)c1 unit_descriptor=µM censor_symbol== meas_value=44.8
compound=C(=Nc1ccc(-c2nc3ccccc3s2)cc1)c1ccc[nH]1 unit_descriptor=µM censor_symbol== meas_value=57.4
compound=Cn1cc(S(=O)(=O)NC(=O)Nc2ccc(Cl)cc2)c(=O)c2ccc(F)cc21 unit_descriptor=µM censor_symbol=> meas_value=100
compound=CC(C)c1ccccc1SCc1cc(=O)cc(CSc2ccccc2C(C)C)o1 unit_descriptor=µM censor_symbol== meas_value=95.6
compound=COc1ccc(-c2csc(NC(=O)CN3CCN(c4cc5c(cc4F)c(=O)c(C(=O)O)cn5C4CC4)CC3)n2)cc1 unit_descriptor=µM censor_symbol=> meas_value=100
compound="Cc1cccc(N2C(=O)C3c4[nH]c5ccc(C)cc5c4C4CCC(C(C)(C)C)CC4C3C2=O)c1 (stereo unspecified)" unit_descriptor=µM censor_symbol== meas_value=68
compound=CCc1c(-c2ccc(OC)cc2)oc(OC)c(C)c1=O unit_descriptor=µM censor_symbol=> meas_value=100
compound=Cc1cc(Cl)ccc1C(=O)c1ccc2ccccc2c1C(=O)O unit_descriptor=µM censor_symbol=> meas_value=100
compound=COc1nc2ccc(COc3ccc(C(=O)O)cc3)cc2nc1OC unit_descriptor=µM censor_symbol== meas_value=97.4
compound=Cc1cc(S(=O)(=O)Nc2n[nH]c(N)n2)c(Cl)cc1Cl unit_descriptor=µM censor_symbol=> meas_value=10
compound=C=Cn1c([N+](=O)[O-])cnc1/C=C/c1ccc(C(=O)OCCN2CCOCC2)cc1 unit_descriptor=µM censor_symbol=> meas_value=100
compound="O=C1CSC(c2ccc(Cl)cc2Cl)N1c1ccc(Oc2ccc(Cl)cc2)c(Cl)c1 (stereo unspecified)" unit_descriptor=µM censor_symbol== meas_value=61.3
compound="Cc1cccc(CC(Cc2ccc(C)cc2C(=O)O)C(=O)O)c1 (stereo unspecified)" unit_descriptor=µM censor_symbol=> meas_value=100
compound=C=C1C(=O)O[C@H]2C[C@@H]1[C@@H](O)[C@H](O)[C@@H](C)CCCC(C)=CCC[C@@]2(C)O unit_descriptor=µM censor_symbol=> meas_value=100
compound=O=c1[nH]cnc2c(COCCO)c[nH]c12 unit_descriptor=µM censor_symbol=> meas_value=100
